# target: human TRPV3 (Homo sapiens, UniProt Q8NET8)
# Construct: expressed in transfected cells
# Sequence (Q8NET8 whole entry): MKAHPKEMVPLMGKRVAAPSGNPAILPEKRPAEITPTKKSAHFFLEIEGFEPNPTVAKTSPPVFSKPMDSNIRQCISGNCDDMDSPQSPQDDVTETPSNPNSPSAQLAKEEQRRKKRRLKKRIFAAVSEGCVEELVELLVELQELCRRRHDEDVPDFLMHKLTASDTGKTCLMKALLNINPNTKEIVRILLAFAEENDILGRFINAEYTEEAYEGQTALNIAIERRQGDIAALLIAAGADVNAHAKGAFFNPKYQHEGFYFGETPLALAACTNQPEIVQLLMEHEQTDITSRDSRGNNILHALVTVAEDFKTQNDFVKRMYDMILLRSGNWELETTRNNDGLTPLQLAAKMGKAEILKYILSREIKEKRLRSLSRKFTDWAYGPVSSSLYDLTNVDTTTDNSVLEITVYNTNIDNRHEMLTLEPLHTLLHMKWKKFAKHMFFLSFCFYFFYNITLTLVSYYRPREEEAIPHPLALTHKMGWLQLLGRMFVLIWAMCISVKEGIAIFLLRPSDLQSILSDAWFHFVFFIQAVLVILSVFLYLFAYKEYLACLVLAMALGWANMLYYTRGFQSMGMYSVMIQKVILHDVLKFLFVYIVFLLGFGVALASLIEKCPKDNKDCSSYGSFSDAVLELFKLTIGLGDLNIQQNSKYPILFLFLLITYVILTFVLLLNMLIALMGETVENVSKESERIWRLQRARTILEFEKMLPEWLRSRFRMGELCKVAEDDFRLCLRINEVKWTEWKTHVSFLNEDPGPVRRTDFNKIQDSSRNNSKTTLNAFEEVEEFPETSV
# assay_name: In vitro antagonism of recombinant human TRPV3 activation (FLIPR Tetra calcium assay, 2-APB as agonist)
# Format: cell-based
# recorded_conditions: HEK293 cells stably expressing human TRPV3; 2-APB 80 μM; range class; read-out: IC50 (reported range)
measured_parameter: IC50

CCN(CC)c1ccc(C2(C(O)c3ccccn3)CCC2)cc1 (centres unmarked) :: 0.501 to 1 µM
CC(c1ccccc1Cl)C1(C(O)c2ccccn2)CCC1 (centres unmarked) :: 1.1 to 5 µM
OC(c1ccccn1)C1(c2ccc(F)c(C(F)(F)F)c2)CCC1 (centres unmarked) :: 0.05 to 0.5 µM

Per the record, ON=C1CC(c2ccc(OC(F)(F)F)cc2)([C@H](O)c2ccccn2)C1 (some centres unmarked) has IC50 of 1.1 to 5 µM

Per the record, OC(c1ccccn1)C1(c2ccccc2C(F)(F)F)CCC1 (centres unmarked) has IC50 of 5.1 to 20 µM

* * *

# pIC50 values compiled below
# target: human TRPV3 (Homo sapiens, UniProt Q8NET8)
# Construct: expressed in transfected cells
# assay_name: In vitro antagonism of recombinant human TRPV3 activation (FLIPR Tetra calcium assay, 2-APB as agonist)
# Assay type: cell-based
# recorded_conditions: HEK293 cells stably expressing human TRPV3; 2-APB 80 μM; range class; read-out: IC50 (reported range)
pIC50: −log10 of the molar value.

Illustrative cases are given below, each with its answer.
O[C@H](c1ccccn1)C1(c2ccc(C(F)(F)F)cc2F)CCC1 [Example 27] :: 5.30 to 5.96
OC(c1ccccn1)C1(c2ccc(Cl)c(Cl)c2)CCCO1 (centres unmarked) [Example 99] :: 5.30 to 5.96
C[C@]1(O)C[C@@](c2ccc(OC(F)(F)F)cc2)([C@@H](O)c2ccccn2)C1 [Example 250] :: 4.70 to 5.29
OC(CC1(c2cccc(OC(F)(F)F)c2)CCC1)c1ccccn1 (centres unmarked) [Example 77] :: 6.00 to 6.30
OC(C1CCCc2cccnc21)C1(c2ccc(F)c(F)c2)CCC1 (centres unmarked) [Example 169] :: 4.70 to 5.29
OC(c1ccccn1)C1(C2CCCC2)CCC1 (centres unmarked) [Example 163] :: 5.30 to 5.96
CN1CCC(c2ccc(OC(F)(F)F)cc2)(C(O)c2ccccn2)CC1 (centres unmarked) [Example 145] :: 5.30 to 5.96
OC(c1ccccn1)C1(c2cccc(C(F)(F)F)c2)CCCO1 (centres unmarked) [Example 107] :: 5.30 to 5.96

Per the record, CON=C1CC(c2ccc(OC(F)(F)F)cc2)([C@H](O)c2ccccn2)C1 (some centres unmarked) [Example 249] has pIC50 of 5.30 to 5.96

Per the record, N[C@@H]1CCC[C@H]1[C@@H](O)C1(c2ccc(Cl)cc2)CCC1 [Example 224] has pIC50 of 5.30 to 5.96

Per the record, OC(c1ccccn1)C1(C2CCc3ccccc32)CCC1 (centres unmarked) [Example 55] has pIC50 of 4.70 to 5.29

Per the record, OC(c1ccccn1)C1(c2ccc(OC(F)(F)F)cc2)CCCO1 (centres unmarked) [Example 94] has pIC50 of 6.30 to 7.30

Per the record, OC(c1ccccn1)C1(c2cccc(OC(F)(F)F)c2)CCOC1 (centres unmarked) [Example 80] has pIC50 of 5.30 to 5.96

Per the record, OC(c1ccccn1)C1(c2ccc(F)cc2)CCC1 (centres unmarked) [Example 3] has pIC50 of 6.00 to 6.30
